biological target: UniProtKB P00750; assay: Concentration for 50% enzyme inhibition, TPA; details: Adjusted for Plasma Protein Binding
Sequence (P00750 36-562, species assumed): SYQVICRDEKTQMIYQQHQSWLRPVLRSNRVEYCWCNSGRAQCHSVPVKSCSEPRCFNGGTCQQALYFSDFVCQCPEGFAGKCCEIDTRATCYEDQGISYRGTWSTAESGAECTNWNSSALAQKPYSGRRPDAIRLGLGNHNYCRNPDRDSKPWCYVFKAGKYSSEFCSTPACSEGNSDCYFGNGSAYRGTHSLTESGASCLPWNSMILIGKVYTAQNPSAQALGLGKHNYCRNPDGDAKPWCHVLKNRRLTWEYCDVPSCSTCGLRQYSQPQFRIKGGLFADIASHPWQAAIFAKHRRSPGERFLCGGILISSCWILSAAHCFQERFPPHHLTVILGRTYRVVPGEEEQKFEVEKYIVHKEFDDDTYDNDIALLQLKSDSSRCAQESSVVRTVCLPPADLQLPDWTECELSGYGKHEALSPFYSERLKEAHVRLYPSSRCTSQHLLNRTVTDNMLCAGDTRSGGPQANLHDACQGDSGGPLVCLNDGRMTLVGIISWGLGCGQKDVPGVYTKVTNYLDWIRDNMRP
readout label: IC50

Form field: reported IC50 of NC(N)=Nc1ncc(Cl)c2ccc(-c3cccc(C(=O)O)c3)cc12 [inhibitor X]
> 33.2 mM

---

target: MMP-9 (Homo sapiens); test: Concentration for 50% enzyme inhibition, MMP-9; conditions: Adjusted for Plasma Protein Binding
Sequence (P14780 94-707, species assumed): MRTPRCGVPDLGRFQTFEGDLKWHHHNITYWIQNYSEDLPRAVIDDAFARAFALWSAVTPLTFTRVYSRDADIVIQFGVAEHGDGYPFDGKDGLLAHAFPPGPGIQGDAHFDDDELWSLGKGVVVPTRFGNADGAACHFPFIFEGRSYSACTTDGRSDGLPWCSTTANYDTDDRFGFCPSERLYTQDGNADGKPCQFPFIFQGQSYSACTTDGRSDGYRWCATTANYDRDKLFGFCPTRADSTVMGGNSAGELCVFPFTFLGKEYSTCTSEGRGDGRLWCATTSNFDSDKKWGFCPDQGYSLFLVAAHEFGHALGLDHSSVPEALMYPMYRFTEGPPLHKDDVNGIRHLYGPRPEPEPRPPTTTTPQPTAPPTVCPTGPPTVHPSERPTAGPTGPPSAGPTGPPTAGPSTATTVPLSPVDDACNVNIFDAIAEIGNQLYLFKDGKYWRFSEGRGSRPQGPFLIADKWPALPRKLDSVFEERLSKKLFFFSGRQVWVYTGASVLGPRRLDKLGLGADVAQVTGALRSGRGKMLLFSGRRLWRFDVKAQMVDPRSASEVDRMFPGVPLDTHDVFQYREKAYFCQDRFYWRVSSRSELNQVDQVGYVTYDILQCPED
readout label: IC50 (mM)
Numbers only here, please. The scale is mM.

Form field: reported IC50 of COC[C@@H](NC(=O)[C@@H](NC(=O)[C@H](CCCc1ccc(-c2ccccc2)c(C)c1)CC(=O)O)C(C)(C)C)c1ccccc1 [A]
16.6

---

target: UniProt P08254; assay: Concentration for 50% enzyme inhibition, MMP-3; details: Adjusted for Plasma Protein Binding
Sequence (P08254 100-477, species assumed): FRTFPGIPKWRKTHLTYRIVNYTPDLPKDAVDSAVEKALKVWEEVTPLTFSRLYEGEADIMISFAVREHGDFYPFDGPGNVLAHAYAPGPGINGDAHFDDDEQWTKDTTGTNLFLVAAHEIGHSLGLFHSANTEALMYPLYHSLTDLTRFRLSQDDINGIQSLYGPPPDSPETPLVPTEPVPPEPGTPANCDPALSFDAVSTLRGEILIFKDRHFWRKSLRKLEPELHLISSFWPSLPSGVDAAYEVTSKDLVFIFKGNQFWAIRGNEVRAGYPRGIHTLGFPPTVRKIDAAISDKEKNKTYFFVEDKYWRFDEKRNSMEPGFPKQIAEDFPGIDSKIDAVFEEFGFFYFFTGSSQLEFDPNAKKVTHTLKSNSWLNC
readout label: pIC50
Scale note: pIC50 = -log10(concentration in M).

Form field: reported pIC50 of `COC[C@@H](NC(=O)[C@@H](NC(=O)[C@H](CCCc1ccc(-c2ccccc2)c(C)c1)CC(=O)O)C(C)(C)C)c1ccccc1`
4.76

---

target: Plasmin (Homo sapiens, UniProt P00747); test: Concentration for 50% enzyme inhibition, Plasmin; conditions: Adjusted for Plasma Protein Binding
Sequence (P00747 581-810 limits assumed, species assumed): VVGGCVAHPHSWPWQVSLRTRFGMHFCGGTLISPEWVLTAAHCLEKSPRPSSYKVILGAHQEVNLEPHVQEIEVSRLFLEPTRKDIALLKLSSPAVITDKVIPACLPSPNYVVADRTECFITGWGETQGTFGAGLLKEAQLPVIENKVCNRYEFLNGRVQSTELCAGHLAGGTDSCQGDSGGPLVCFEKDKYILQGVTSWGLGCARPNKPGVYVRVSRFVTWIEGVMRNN
Sequence (P00747 97-580 partner limits assumed, species assumed): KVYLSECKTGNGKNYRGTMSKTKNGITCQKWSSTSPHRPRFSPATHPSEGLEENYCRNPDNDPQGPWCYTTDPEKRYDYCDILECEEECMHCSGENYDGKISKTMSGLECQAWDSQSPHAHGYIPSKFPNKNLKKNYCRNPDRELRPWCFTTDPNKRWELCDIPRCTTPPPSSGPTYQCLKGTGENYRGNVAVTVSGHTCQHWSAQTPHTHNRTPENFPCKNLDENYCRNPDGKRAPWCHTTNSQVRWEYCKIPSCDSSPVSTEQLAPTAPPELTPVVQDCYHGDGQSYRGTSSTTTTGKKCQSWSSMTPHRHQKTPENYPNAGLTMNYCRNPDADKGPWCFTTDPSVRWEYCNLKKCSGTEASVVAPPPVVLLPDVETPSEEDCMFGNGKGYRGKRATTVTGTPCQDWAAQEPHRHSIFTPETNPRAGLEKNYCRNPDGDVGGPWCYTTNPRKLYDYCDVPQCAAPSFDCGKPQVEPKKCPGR
readout label: IC50 (mM)
Numbers only here, please. The scale is mM.

Form field: reported IC50 of `NC(N)=Nc1ncc(Cl)c2ccc(-c3cccc(C(=O)O)c3)cc12`
33.2
